Cited source: PubChem BioAssay (NCI)

- Tested on: NCI-H522 lung
- run-description: NCI-60 one-dose screen, 48 h
- protocol-conditions: 10 µM unless noted
This is part of a sample that, as a whole, favours compounds with a hit. Of some 83,000 tested, about 20% had one in any assay. The source made the active and inactive calls. Rule for the calls: active = growth percent below 10; inactive = the rest.
// classify into active, inactive

A selection of reference data follows.
| compound | class-assignment |
| --- | --- |
| N/C(=N\c1nc2ccccc2s1)NC(=O)Nc1ccc(Cl)cc1Cl | active |
| COc1cc(OC)cc(C(=O)Nc2cccc(-c3cn(-c4ccc(S(N)(=O)=O)cc4)nn3)c2)c1 | inactive |
| COc1cc(/C=C/C(=O)c2ccc(C)cc2)ccc1Oc1nc(Nc2ccc(F)cc2)nc(N(C)C)n1 | inactive |

Exercise: // param item: COc1ccc2oc(=O)c(C3(C)NC(=O)c4c(/C=C/C(=O)OC(C)(C)C)cccc4N3)cc2c1 (stereo not drawn) ; yields the recorded call
Solution: inactive

Exercise: Which outcome was assigned to "Cc1ccc(S(=O)(=O)c2nc(S(=O)(=O)c3ccc(C)cc3)c(Cl)s2)cc1" in this test?
Solution: active

Exercise: // outcome(item) with item = CCCn1cc(-c2nc(Nc3ccc(C(=O)NCCCCNc4cccc5c4C(=O)N(C4CCC(=O)NC4=O)C5=O)cc3)nc3[nH]ccc23)cn1 (stereo not drawn)
Solution: inactive

Exercise: Recorded call for C=C1CC[C@@H]2[C@]3(C)COC(c4ccco4)O[C@@H]3CC[C@@]2(C)[C@@H]1C/C=C1/C(=O)OCC1OC(C)=O (stereo partly drawn) ?
Solution: active

Exercise: Outcome logged for "Cc1cccc(-c2nc(Nc3ccc(C)c(S(N)(=O)=O)c3)c3ccccc3n2)c1" in this assay:
Solution: active

* * *

- Test system: UO-31 renal
- run-description: NCI-60 one-dose screen, 48 h
- protocol-conditions: 10 µM unless noted
- Experimental: Growth inhibition of the UO-31 human tumor cell line is measured as a screen for anti-cancer activity. Cells are grown in 96 well plates and exposed to the test compound for 48 hours. Compounds are tested at a single concentration, which is 10^-5 M for most compounds. The reported endpoint is percent growth (GI% or GIPRCNT), where numbers from 0 - 100% represent growth inhibition, and numbers from -100% - 0 represent cell death. For example, a value of 40 represents 60% growth inhibition. […]
The panel holds about 83,000 compounds, 20% with a hit somewhere; the sample as a whole holds those more often. Activity calls are given as the source filed them. The calls were made as follows: active = growth percent below 10; inactive = the rest.
# output must be one of active, inactive

Please review the following examples before continuing.
| compound | class-assignment |
| --- | --- |
| COc1ccc(C2=NN(c3ccccc3)C(c3ccc(OCc4ccccc4)c(OC)c3)C2)cc1OC (stereo not drawn) | inactive |
| Cn1cc(-c2cc3nc(-c4cn(C)c5ncccc45)cc(N)n3n2)c2cc(Cl)ccc21 | active |
| CN1CCN(/C(=N\c2sc(-c3ccccc3)nc2-c2ccccc2)c2ccccc2)CC1 | inactive |
| COc1cc(C2CC(c3cc(OC)c(OC)c(OC)c3)=NN2C(C)=O)ccc1OCc1ccc(F)cc1 (stereo not drawn) | inactive |
| N#Cc1cnn(C(=O)c2ccccc2Br)c1NC(=O)c1ccc(Br)cc1Cl | inactive |
| O=C(O)c1ccc(-c2ccc(/C=N/NC(=O)c3[nH]c4ccc(Br)cc4c3-c3ccccc3)o2)cc1 | inactive |

Exercise: Which outcome was assigned to Cc1ccc([C@H]2C(C(=O)c3ccc(Cl)cc3)C3(N[C@@H]2c2ccccc2)C(=O)Nc2ccccc23)cc1 (stereo partly drawn) in this test?
Solution: inactive
